Tgt: B1-AR (Homo sapiens, UniProt P08588)
Construct: expressed in transfected cells; host or cells: CHO-K1
Sequence (P08588 whole entry, species assumed): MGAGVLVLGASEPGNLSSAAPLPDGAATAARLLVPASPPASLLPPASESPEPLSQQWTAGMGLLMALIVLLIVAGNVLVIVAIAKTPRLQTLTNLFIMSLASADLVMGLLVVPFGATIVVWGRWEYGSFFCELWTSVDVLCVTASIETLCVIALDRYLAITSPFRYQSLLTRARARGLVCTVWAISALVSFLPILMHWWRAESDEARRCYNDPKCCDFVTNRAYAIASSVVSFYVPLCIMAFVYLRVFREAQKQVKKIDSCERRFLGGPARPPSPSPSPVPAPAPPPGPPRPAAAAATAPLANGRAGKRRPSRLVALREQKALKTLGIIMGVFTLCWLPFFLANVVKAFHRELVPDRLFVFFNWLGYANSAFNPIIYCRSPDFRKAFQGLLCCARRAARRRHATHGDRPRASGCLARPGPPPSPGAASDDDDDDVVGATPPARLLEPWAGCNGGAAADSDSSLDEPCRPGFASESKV
Test Description: cAMP Gs dynamic HTRF assay, cells expressing beta-adrenergic receptor (CHO-K1), B1-AR
Assay type: cell-based
Recorded Conditions: cAMP HTRF, read-out: pEC50 [B1-AR] (converted)
Listed molecules paired with reported EC50

Please review the entries below; each comes with its answer.
INSERT INTO results (structure_smiles, tgt, data_value) VALUES
  ('CC(C)[C@@H](C)NC[C@H](O)c1cc(F)cc2[nH]ncc12', 'B1-AR (Homo sapiens, UniProt P08588)', '< 0.01 µM'),
  ('Cc1n[nH]c2cccc([C@@H](O)CNC3CCC3)c12', 'B1-AR (Homo sapiens, UniProt P08588)', '0.1 to 1 µM'),
  ('CNc1ncc([C@@H](O)CNC(C)(C)C)cn1', 'B1-AR (Homo sapiens, UniProt P08588)', '0.1 to 1 µM'),
  ('COc1ccc(C[C@@H](C)NC[C@H](O)c2ccc(F)c3[nH]ncc23)cc1', 'B1-AR (Homo sapiens, UniProt P08588)', '< 0.01 µM'),
  ('CC(C)(NC[C@H](O)c1cc(C#N)cc2[nH]ncc12)C1CC1', 'B1-AR (Homo sapiens, UniProt P08588)', '0.1 to 1 µM');

Input line: Note EC50 for the molecule shown: CC1(N[C@@H](CO)c2cncc3[nH]ncc23)CC1
Output line: > 1 µM

Input line: Note EC50 for the molecule shown: CC(C)NC[C@H](O)c1ccc(Cl)c2[nH]ncc12
Output line: < 0.01 µM

Input line: Note EC50 for the molecule shown: CC(C)(C)CNC[C@H](O)c1cccc2[nH]ncc12
Output line: 0.1 to 1 µM

Input line: Note EC50 for the molecule shown: CC(C)(C)NC[C@H](O)c1cccc2c(F)n[nH]c12
Output line: 0.1 to 1 µM

====

Listed compounds paired with reported EC50
Tgt: B2-AR (Homo sapiens)
Construct: expressed in transfected cells; host or cells: CHO-K1
Sequence (P07550 whole entry, species assumed): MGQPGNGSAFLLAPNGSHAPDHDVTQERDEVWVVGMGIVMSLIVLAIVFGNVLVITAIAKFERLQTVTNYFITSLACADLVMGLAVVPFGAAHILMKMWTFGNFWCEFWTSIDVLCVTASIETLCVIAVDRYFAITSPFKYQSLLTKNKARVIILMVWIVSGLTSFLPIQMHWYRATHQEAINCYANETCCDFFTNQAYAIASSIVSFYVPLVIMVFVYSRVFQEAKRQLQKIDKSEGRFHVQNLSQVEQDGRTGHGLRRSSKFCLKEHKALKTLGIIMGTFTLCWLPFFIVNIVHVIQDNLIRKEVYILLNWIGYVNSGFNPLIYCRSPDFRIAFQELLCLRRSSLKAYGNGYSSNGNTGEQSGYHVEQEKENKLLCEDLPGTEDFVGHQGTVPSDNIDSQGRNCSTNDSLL
Test Description: cAMP Gs dynamic HTRF assay, cells expressing beta-adrenergic receptor (CHO-K1), B2-AR
Format: cell-based
Recorded Conditions: CHO-K1 cells, cAMP HTRF; read-out: pEC50 [B2-AR] (converted)

Please review the entries below; each comes with its answer.
INSERT INTO assay_data (compound, readout, data_value) VALUES
  ('CC(C)(C)NC[C@H](O)c1cc(C(F)F)cc2[nH]ncc12 [I-123]', 'EC50', '100 to 1000 nM'),
  ('CC(C)(C)NC[C@@H](O)c1ccc(N)nn1 [I-141]', 'EC50', '100 to 1000 nM'),
  ('CC(C)(C)NC[C@H](O)c1cnc(N)s1 [I-86]', 'EC50', '100 to 1000 nM'),
  ('CCC(C)(C)NC[C@H](O)c1cncc2[nH]ncc12 [I-53]', 'EC50', '10 to 100 nM'),
  ('CC(C)(C)CNC[C@H](O)c1cc(C#N)cc2[nH]ncc12 [I-69]', 'EC50', '100 to 1000 nM'),
  ('Cc1n[nH]c2cccc([C@@H](O)CNC3CC3)c12 [I-167]', 'EC50', '100 to 1000 nM');

Let us move to another entry and its EC50.
Input line: Note EC50 for the compound shown: O[C@@H](CNC1CC1)c1cncc2[nH]ncc12 [I-164]
Output line: 100 to 1000 nM
